The reader will find reported IC50 values listed item by item below.
biological target: Sphingosine 1-phosphate receptor 4 (Homo sapiens); experiment: Displacement of [33P]S1P from S1P4 expressed in CHO cells
Sequence (O95977 whole entry): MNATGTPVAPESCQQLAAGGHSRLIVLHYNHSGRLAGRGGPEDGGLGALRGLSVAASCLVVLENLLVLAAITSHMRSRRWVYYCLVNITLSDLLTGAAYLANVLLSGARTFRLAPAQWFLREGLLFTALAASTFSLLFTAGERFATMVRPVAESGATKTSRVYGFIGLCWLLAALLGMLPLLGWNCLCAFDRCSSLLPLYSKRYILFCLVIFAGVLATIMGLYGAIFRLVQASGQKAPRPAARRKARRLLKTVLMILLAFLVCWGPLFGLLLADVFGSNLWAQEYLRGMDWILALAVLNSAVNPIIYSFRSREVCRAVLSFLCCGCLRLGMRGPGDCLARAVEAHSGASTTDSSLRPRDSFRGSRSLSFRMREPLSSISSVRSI

{"columns": ["molecule", "IC50 [nM]"],
 "data": [
  ["O=C(O)C[C@@H]1CC[C@H](c2ccc(-c3noc(-c4ccc([C@@H]5CCC(F)(F)C5)cc4)n3)cc2)N1 (racemic)", 570],
  ["CC(C)Cc1ccc(-c2nc(-c3ccc([C@@H]4CC[C@@H](CCC(=O)O)N4)cc3)no2)cc1 (racemic)", 630],
  ["O=C(O)C[C@@H]1CC[C@H](c2ccc(-c3noc(-c4ccc([C@H]5CCC(F)(F)C5)cc4)n3)cc2)N1 (racemic)", 720],
  ["O=C(O)C[C@@H]1CC[C@H](c2ccc(-c3noc(-c4ccc(C5CCCCC5)cc4)n3)cc2)N1 (racemic)", 350]
]}

====

biological target: Sphingosine 1-phosphate receptor 4 (Homo sapiens); assay: Displacement of [33P]S1P from S1P4 expressed in CHO cells
pIC50: −log10 of the molar value.
reported endpoint: pIC50

{"columns": ["compound", "value"],
 "data": [
  ["O=C(O)C[C@@H]1CC[C@H](c2ccc(-c3noc(-c4ccc([C@@H]5CCC(F)(F)C5)cc4)n3)cc2)N1 (stereo in doubt; form 1)", 5.82],
  ["CC(C)Cc1ccc(-c2nc(-c3ccc([C@H]4CC[C@@H](C(=O)O)N4)cc3)no2)cc1 (racemic)", 6.00],
  ["CC(C)Cc1ccc(-c2nc(-c3ccc([C@H]4CC[C@@H](CCC(=O)O)N4)cc3)no2)cc1 (racemic)", 6.27],
  ["O=C(O)C[C@@H]1CC[C@H](c2ccc(-c3noc(-c4ccc(C5CCCC5)c(F)c4)n3)cc2)N1 (racemic)", 5.68],
  ["CC(C)Cc1ccc(-c2nc(-c3ccc([C@@H]4CC[C@@H](C(=O)O)N4)cc3)no2)cc1 (racemic)", 6.52],
  ["CC(C)Cc1ccc(-c2nc(-c3ccc([C@H]4CC[C@@H](CC(=O)O)N4)cc3)no2)cc1 (racemic)", 6.00],
  ["CC(C)Cc1ccc(-c2nc(-c3ccc([C@@H]4CC[C@@H](CC(=O)O)N4)cc3)no2)cc1 (racemic)", 6.15],
  ["O=C(O)C[C@@H]1CC[C@H](c2ccc(-c3noc(-c4ccc(C5CCCC5)cc4F)n3)cc2)N1 (racemic)", 5.85],
  ["O=C(O)C[C@@H]1CC[C@H](c2ccc(-c3noc(-c4ccc([C@@H]5CCC(F)(F)C5)cc4)n3)cc2)N1 (stereo in doubt; form 2)", 6.14]
]}

====

molecular target: Sphingosine 1-phosphate receptor 5 (Homo sapiens); assay: Displacement of [33P]S1P from S1P5 expressed in CHO cells
Sequence (Q9H228 whole entry): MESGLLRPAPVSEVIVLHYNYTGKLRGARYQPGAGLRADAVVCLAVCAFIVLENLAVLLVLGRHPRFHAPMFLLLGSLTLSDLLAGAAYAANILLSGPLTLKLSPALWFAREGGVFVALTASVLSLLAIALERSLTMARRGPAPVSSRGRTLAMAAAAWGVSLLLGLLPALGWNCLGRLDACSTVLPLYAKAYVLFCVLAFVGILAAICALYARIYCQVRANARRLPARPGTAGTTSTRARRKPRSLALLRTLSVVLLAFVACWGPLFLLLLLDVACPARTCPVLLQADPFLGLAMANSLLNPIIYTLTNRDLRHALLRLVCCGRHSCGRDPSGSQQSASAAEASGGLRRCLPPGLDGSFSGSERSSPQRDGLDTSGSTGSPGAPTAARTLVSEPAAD
pIC50: −log10 of the molar value.
Where pIC50 equals or exceeds 7, the correct label is Met; where it does not, the label is Not met.

{"columns": ["molecule", "class name"],
 "data": [
  ["CC(C)Cc1ccc(-c2nc(-c3ccc([C@@H]4CC[C@@H](C(=O)O)N4)cc3)no2)cc1 (racemic)", "Not met"],
  ["CC(C)Cc1ccc(-c2nc(-c3ccc([C@H]4CC[C@@H](CC(=O)O)N4)cc3)no2)cc1 (racemic)", "Not met"],
  ["CC(C)Cc1ccc(-c2nc(-c3ccc([C@H]4CC[C@@H](CCC(=O)O)N4)cc3)no2)cc1 (racemic)", "Met"],
  ["O=C(O)C[C@@H]1CC[C@H](c2ccc(-c3noc(-c4ccc([C@H]5CCC(F)(F)C5)cc4)n3)cc2)N1 (racemic)", "Met"],
  ["O=C(O)C[C@@H]1CC[C@H](c2ccc(-c3noc(-c4ccc([C@@H]5CCC(F)(F)C5)cc4)n3)cc2)N1 (racemic)", "Met"],
  ["O=C(O)C[C@@H]1CC[C@H](c2ccc(-c3noc(-c4ccc(C5CCCCC5)cc4)n3)cc2)N1 (racemic)", "Met"],
  ["O=C(O)C[C@@H]1CC[C@H](c2ccc(-c3noc(-c4ccc([C@@H]5CCC(F)(F)C5)cc4)n3)cc2)N1 (stereo in doubt; form 2)", "Met"],
  ["CC(C)Cc1ccc(-c2nc(-c3ccc([C@H]4CC[C@@H](C(=O)O)N4)cc3)no2)cc1 (racemic)", "Not met"],
  ["O=C(O)C[C@@H]1CC[C@H](c2ccc(-c3noc(-c4ccc(C5CCCC5)cc4F)n3)cc2)N1 (racemic)", "Met"],
  ["O=C(O)C[C@@H]1CC[C@H](c2ccc(-c3noc(-c4ccc(C5CCCC5)c(F)c4)n3)cc2)N1 (racemic)", "Met"],
  ["O=C(O)C[C@@H]1CC[C@H](c2ccc(-c3noc(-c4ccc([C@@H]5CCC(F)(F)C5)cc4)n3)cc2)N1 (stereo in doubt; form 1)", "Met"]
]}

====

target: Sphingosine 1-phosphate receptor 3 (Homo sapiens); test: Displacement of [33P]S1P from S1P3 expressed in CHO cells
Sequence (Q99500 whole entry): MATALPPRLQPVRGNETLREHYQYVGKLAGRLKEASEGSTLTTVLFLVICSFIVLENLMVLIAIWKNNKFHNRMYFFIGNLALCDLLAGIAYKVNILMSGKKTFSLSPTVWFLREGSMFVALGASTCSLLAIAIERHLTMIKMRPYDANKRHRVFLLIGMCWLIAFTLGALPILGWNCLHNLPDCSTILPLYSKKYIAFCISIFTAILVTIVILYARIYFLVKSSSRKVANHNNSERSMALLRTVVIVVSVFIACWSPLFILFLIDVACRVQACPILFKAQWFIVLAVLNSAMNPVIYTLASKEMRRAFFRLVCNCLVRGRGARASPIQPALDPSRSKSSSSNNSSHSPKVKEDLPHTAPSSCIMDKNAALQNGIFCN
pIC50: −log10 of the molar value.
The reader will find reported pIC50 values listed item by item below.

{"columns": ["molecule", "test system", "relation operator", "pIC50"],
 "data": [
  ["O=C(O)C[C@@H]1CC[C@H](c2ccc(-c3noc(-c4ccc(C5CCCCC5)cc4)n3)cc2)N1 (racemic)", "Sphingosine 1-phosphate receptor 3 (Homo sapiens)", "=", 5.77],
  ["CC(C)Cc1ccc(-c2nc(-c3ccc([C@H]4CC[C@@H](C(=O)O)N4)cc3)no2)cc1 (racemic)", "Sphingosine 1-phosphate receptor 3 (Homo sapiens)", "<", 5.00],
  ["O=C(O)C[C@@H]1CC[C@H](c2ccc(-c3noc(-c4ccc([C@H]5CCC(F)(F)C5)cc4)n3)cc2)N1 (racemic)", "Sphingosine 1-phosphate receptor 3 (Homo sapiens)", "=", 5.66],
  ["CC(C)Cc1ccc(-c2nc(-c3ccc([C@@H]4CC[C@@H](CC(=O)O)N4)cc3)no2)cc1 (racemic)", "Sphingosine 1-phosphate receptor 3 (Homo sapiens)", "<", 5.00],
  ["CC(C)Cc1ccc(-c2nc(-c3ccc([C@H]4CC[C@@H](CC(=O)O)N4)cc3)no2)cc1 (racemic)", "Sphingosine 1-phosphate receptor 3 (Homo sapiens)", "<", 5.00],
  ["CC(C)Cc1ccc(-c2nc(-c3ccc([C@H]4CC[C@@H](CCC(=O)O)N4)cc3)no2)cc1 (racemic)", "Sphingosine 1-phosphate receptor 3 (Homo sapiens)", "<", 5.00],
  ["O=C(O)C[C@@H]1CC[C@H](c2ccc(-c3noc(-c4ccc([C@@H]5CCC(F)(F)C5)cc4)n3)cc2)N1 (stereo in doubt; form 2)", "Sphingosine 1-phosphate receptor 3 (Homo sapiens)", "=", 5.42]
]}

====

biological target: Sphingosine 1-phosphate receptor 1 (Homo sapiens, UniProt P21453); assay: Displacement of [33P]S1P from S1P1 expressed in CHO cells; format: cell-based
Sequence (P21453 whole entry): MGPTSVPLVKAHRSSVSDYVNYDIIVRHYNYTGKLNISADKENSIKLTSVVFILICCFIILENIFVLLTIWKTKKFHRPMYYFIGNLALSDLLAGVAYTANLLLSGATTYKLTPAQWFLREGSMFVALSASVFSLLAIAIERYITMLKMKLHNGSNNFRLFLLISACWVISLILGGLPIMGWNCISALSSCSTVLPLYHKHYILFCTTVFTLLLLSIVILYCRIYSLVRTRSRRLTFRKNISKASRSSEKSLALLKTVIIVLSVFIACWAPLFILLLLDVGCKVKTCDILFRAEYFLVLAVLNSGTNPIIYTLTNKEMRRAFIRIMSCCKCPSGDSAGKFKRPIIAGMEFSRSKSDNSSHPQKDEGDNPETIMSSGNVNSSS
Doc: threshold 3 nM (exclusive). Items with IC50 beneath it return label 1; others return label 0.

{"columns": ["compound", "class name"],
 "data": [
  ["CC(C)Cc1ccc(-c2nc(-c3ccc([C@H]4CC[C@@H](CC(=O)O)N4)cc3)no2)cc1 (racemic)", "label 0"],
  ["O=C(O)C[C@@H]1CC[C@H](c2ccc(-c3noc(-c4ccc(C5CCCC5)cc4F)n3)cc2)N1 (racemic)", "label 1"],
  ["CC(C)Cc1ccc(-c2nc(-c3ccc([C@@H]4CC[C@@H](C(=O)O)N4)cc3)no2)cc1 (racemic)", "label 0"],
  ["O=C(O)C[C@@H]1CC[C@H](c2ccc(-c3noc(-c4ccc(C5CCCCC5)cc4)n3)cc2)N1 (racemic)", "label 1"],
  ["O=C(O)C[C@@H]1CC[C@H](c2ccc(-c3noc(-c4ccc([C@@H]5CCC(F)(F)C5)cc4)n3)cc2)N1 (stereo in doubt; form 2)", "label 1"],
  ["CC(C)Cc1ccc(-c2nc(-c3ccc([C@H]4CC[C@@H](C(=O)O)N4)cc3)no2)cc1 (racemic)", "label 0"]
]}

====

target: Sphingosine 1-phosphate receptor 1 (Homo sapiens, UniProt P21453); experiment: Activity at S1P1 receptor by [35S]GTP-gammaS binding assay; type: functional; conditions: filed as agonist

{"columns": ["compound", "Activity"],
 "data": [
  ["O=C(O)C[C@@H]1CC[C@H](c2ccc(-c3noc(-c4ccc(C5CCCCC5)cc4)n3)cc2)N1 (racemic)", "Agonist"],
  ["CC(C)Cc1ccc(-c2nc(-c3ccc([C@@H]4CC[C@@H](C(=O)O)N4)cc3)no2)cc1 (racemic)", "Agonist"],
  ["O=C(O)C[C@@H]1CC[C@H](c2ccc(-c3noc(-c4ccc([C@@H]5CCC(F)(F)C5)cc4)n3)cc2)N1 (stereo in doubt; form 1)", "Agonist"],
  ["CC(C)Cc1ccc(-c2nc(-c3ccc([C@H]4CC[C@@H](CCC(=O)O)N4)cc3)no2)cc1 (racemic)", "Agonist"],
  ["CC(C)Cc1ccc(-c2nc(-c3ccc([C@@H]4CC[C@@H](CCC(=O)O)N4)cc3)no2)cc1 (racemic)", "Agonist"],
  ["O=C(O)C[C@@H]1CC[C@H](c2ccc(-c3noc(-c4ccc([C@H]5CCC(F)(F)C5)cc4)n3)cc2)N1 (racemic)", "Agonist"],
  ["O=C(O)C[C@@H]1CC[C@H](c2ccc(-c3noc(-c4ccc([C@@H]5CCC(F)(F)C5)cc4)n3)cc2)N1 (racemic)", "Agonist"],
  ["CC(C)Cc1ccc(-c2nc(-c3ccc([C@@H]4CC[C@@H](CC(=O)O)N4)cc3)no2)cc1 (racemic)", "Agonist"],
  ["O=C(O)C[C@@H]1CC[C@H](c2ccc(-c3noc(-c4ccc([C@@H]5CCC(F)(F)C5)cc4)n3)cc2)N1 (stereo in doubt; form 2)", "Agonist"],
  ["CC(C)Cc1ccc(-c2nc(-c3ccc([C@H]4CC[C@@H](CC(=O)O)N4)cc3)no2)cc1 (racemic)", "Agonist"],
  ["O=C(O)C[C@@H]1CC[C@H](c2ccc(-c3noc(-c4ccc(C5CCCC5)c(F)c4)n3)cc2)N1 (racemic)", "Agonist"],
  ["CC(C)Cc1ccc(-c2nc(-c3ccc([C@H]4CC[C@@H](C(=O)O)N4)cc3)no2)cc1 (racemic)", "Agonist"],
  ["O=C(O)C[C@@H]1CC[C@H](c2ccc(-c3noc(-c4ccc(C5CCCC5)cc4F)n3)cc2)N1 (racemic)", "Agonist"]
]}
